- ASSAY INFO: Plasma stability assay, human plasma
- Type: in vitro ADME
- ASSAY SETUP: human plasma, pH 7.4, 37° C., 1 μM
- Protocol: Rat or human plasma adjusted at pH 7.4 with lactic acid or ammonium hydroxide, were equilibrated at 37° C. under orbital shaking in an incubator containing 5% CO2. […] After vortexing for 20 min at 1400 rpm on an Eppendorf thermomixer, the plates were centrifuged at 3220 g for 20 min at 4° C. and the supernatants were analyzed with LC-MSMS. Calibration samples in plasma containing 0.1% of dichlorvos were prepared and analysed in parallel to the incubation samples to allow the quantification. […]
# half-life at 1 μM listing for each entry below

COMPOUND | VALUE PREFIX | half-life at 1 μM, h
CC(=O)c1coc(Cn2ncc(NC(=O)c3nc(C)oc3-c3cccc(C)c3)n2)n1 [reference compound 11] | = | 2.4
COCc1coc(Cn2ncc(NC(=O)c3nc(C)oc3-c3cccc(C)c3)n2)n1 | > | 24

###

- TEST SYSTEM: recombinant human ALX receptor (Homo sapiens)
- Construct: expressed in transfected cells; host or cells: HEK293 (HEK293-hALXR-Gα16)
- Sequence (P25090 1-351): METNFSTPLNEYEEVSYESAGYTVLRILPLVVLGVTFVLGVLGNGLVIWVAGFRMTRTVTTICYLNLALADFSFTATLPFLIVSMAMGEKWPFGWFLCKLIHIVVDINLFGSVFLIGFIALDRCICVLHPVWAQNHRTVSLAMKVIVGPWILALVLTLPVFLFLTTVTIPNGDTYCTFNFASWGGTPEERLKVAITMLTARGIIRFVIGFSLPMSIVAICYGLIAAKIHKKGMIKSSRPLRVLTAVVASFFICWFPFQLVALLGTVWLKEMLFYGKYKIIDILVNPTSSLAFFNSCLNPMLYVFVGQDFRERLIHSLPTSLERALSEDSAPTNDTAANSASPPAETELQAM
- ASSAY INFO: Intracellular calcium measurements (FLIPR), ALX receptor agonistic activity
- Assay type: cell-based
- ASSAY SETUP: HEK293-hALXR-Gα16 cells; Table 2, reference compounds
pEC50: −log10 of the molar value.
# pEC50 listing for each entry below

COMPOUND | pEC50
COCc1nc(Cn2ncc(NC(=O)c3nc(C)oc3-c3cccc(C)c3)n2)co1 [reference compound 10] | 8.09
COCc1cnc(Cn2ncc(NC(=O)c3nc(C)oc3-c3cccc(C)c3)n2)s1 [reference compound 2] | 5.60
COCc1cnc(Cn2ncc(NC(=O)c3ncoc3-c3ccccc3)n2)s1 [reference compound 8] | 5.23
COCc1ncc(Cn2ncc(NC(=O)c3nc(C)oc3-c3cccc(C)c3)n2)s1 [reference compound 1] | 5.32
COC(C)(C)c1nc(Cn2ncc(NC(=O)c3ncoc3-c3ccccc3)n2)co1 [reference compound 9] | 6.16
COCc1nc(Cn2ncc(NC(=O)c3ncoc3-c3ccccc3)n2)cs1 [reference compound 6] | 6.84
COCc1ccc(Cn2ncc(NC(=O)c3ncoc3-c3ccccc3)n2)s1 [reference compound 4] | 5.64
COCc1ncc(Cn2ncc(NC(=O)c3ncoc3-c3ccccc3)n2)s1 [reference compound 7] | 5.09
COCc1ccc(Cn2ncc(NC(=O)c3ncoc3-c3ccccc3)n2)o1 [reference compound 3] | 6.30
COCc1csc(Cn2ncc(NC(=O)c3ncoc3-c3ccccc3)n2)n1 [reference compound 5] | 7.32

###

# pEC50 listing for each entry below
- TEST SYSTEM: recombinant human ALX receptor (Homo sapiens, UniProt P25090)
- Construct: expressed in transfected cells; host or cells: HEK293 (HEK293-hALXR-Gα16)
- ASSAY INFO: Intracellular calcium measurements (FLIPR), ALX receptor agonistic activity
- Assay type: cell-based
- ASSAY SETUP: HEK293-hALXR-Gα16 cells; Table 1, exemplified compounds
pEC50: −log10 of the molar value.

INPUT SMILES | TEST SYSTEM | pEC50
COCc1coc(Cn2ncc(NC(=O)c3nc(C)oc3-c3cccc(C)c3)n2)n1 | recombinant human ALX receptor (Homo sapiens, UniProt P25090) | 8.77
COCc1coc(Cn2ncc(NC(=O)c3nc(C4CC4)oc3-c3cccc(C)c3)n2)n1 | recombinant human ALX receptor (Homo sapiens, UniProt P25090) | 7.94
COCc1coc(Cn2ncc(NC(=O)c3ncoc3-c3cccc(Cl)c3)n2)n1 | recombinant human ALX receptor (Homo sapiens, UniProt P25090) | 8.40
COCc1coc(Cn2ncc(NC(=O)c3nc(C)oc3-c3cccc(C(F)(F)F)c3)n2)n1 | recombinant human ALX receptor (Homo sapiens, UniProt P25090) | 8.25
CCOCc1coc(Cn2ncc(NC(=O)c3ncoc3-c3ccccc3)n2)n1 | recombinant human ALX receptor (Homo sapiens, UniProt P25090) | 8.07
COCc1coc(Cn2ncc(NC(=O)c3ncoc3-c3ccccc3)n2)n1 | recombinant human ALX receptor (Homo sapiens, UniProt P25090) | 8.30
COCc1coc(Cn2ncc(NC(=O)c3ncoc3-c3cccc(OC)c3)n2)n1 | recombinant human ALX receptor (Homo sapiens, UniProt P25090) | 7.76

###

- TEST SYSTEM: recombinant human ALX receptor (Homo sapiens)
- Construct: expressed in transfected cells; host or cells: HEK293 (HEK293-hALXR-Gα16)
- ASSAY INFO: Intracellular calcium measurements (FLIPR), ALX receptor agonistic activity
- Assay type: cell-based
- ASSAY SETUP: HEK293-hALXR-Gα16 cells; Table 2, compound failing within formula I of WO 2009/077990
MEASURE: EC50 (nM)

COMPOUND | EXPERIMENTAL VALUE
CC(=O)c1ncc(Cn2ncc(NC(=O)c3ncoc3-c3ccccc3)n2)s1 [example 67] | 73
CC(=O)c1nc(Cn2ncc(NC(=O)c3nc(C)oc3-c3cccc(C)c3)n2)co1 | 0.9
CC(=O)c1csc(Cn2ncc(NC(=O)c3ncoc3-c3ccccc3)n2)n1 [example 39] | 8.1
CC(=O)c1nc(Cn2ncc(NC(=O)c3ncoc3-c3ccccc3)n2)cs1 [example 45] | 93
CC(=O)c1cnc(Cn2ncc(NC(=O)c3ncoc3-c3ccccc3)n2)s1 [example 73] | 88
CC(=O)c1nc(Cn2ncc(NC(=O)c3ncoc3-c3ccccc3)n2)co1 | 1.5

###

- TEST SYSTEM: recombinant human ALX receptor (Homo sapiens)
- Construct: expressed in transfected cells; host or cells: HEK293 (HEK293-hALXR-Gα16)
- Sequence (P25090 1-351): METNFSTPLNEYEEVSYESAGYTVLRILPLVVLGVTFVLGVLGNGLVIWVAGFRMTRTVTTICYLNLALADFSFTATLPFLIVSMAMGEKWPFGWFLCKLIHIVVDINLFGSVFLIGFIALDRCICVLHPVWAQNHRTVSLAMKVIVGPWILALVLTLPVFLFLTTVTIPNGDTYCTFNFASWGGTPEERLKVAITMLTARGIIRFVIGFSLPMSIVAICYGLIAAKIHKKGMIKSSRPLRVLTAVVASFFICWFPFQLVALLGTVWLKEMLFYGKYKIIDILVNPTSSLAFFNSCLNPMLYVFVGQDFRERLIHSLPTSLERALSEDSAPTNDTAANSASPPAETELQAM
- ASSAY INFO: Intracellular calcium measurements (FLIPR), ALX receptor agonistic activity
- Type: cell-based
- ASSAY SETUP: HEK293-hALXR-Gα16 cells; Table 1, exemplified compounds
pEC50: −log10 of the molar value.
# pEC50 listing for each entry below

COMPOUND | pEC50
COCc1coc(Cn2ncc(NC(=O)c3nc(C)oc3-c3cccc(F)c3)n2)n1 [Example 9] | 8.43
COCc1coc(Cn2ncc(NC(=O)c3nc(C)oc3-c3cccc(OC)c3)n2)n1 [Example 8] | 8.06
COCc1coc(Cn2ncc(NC(=O)c3ncoc3-c3cccc(C)c3)n2)n1 [Example 10] | 8.34
COCc1coc(Cn2ncc(NC(=O)c3nc(C)oc3-c3ccccc3)n2)n1 [Example 3] | 8.37
COC(C)(C)c1coc(Cn2ncc(NC(=O)c3nc(C)oc3-c3cccc(C)c3)n2)n1 [Example 1] | 8.18
COCc1coc(Cn2ncc(NC(=O)c3nc(C)oc3-c3cccc(OC(F)(F)F)c3)n2)n1 [Example 11] | 8.13
COCc1coc(Cn2ncc(NC(=O)c3nc(C)oc3-c3cccc(Cl)c3)n2)n1 [Example 4] | 8.68
CCOCc1coc(Cn2ncc(NC(=O)c3nc(C)oc3-c3cccc(C)c3)n2)n1 [Example 14] | 8.17
